Target: Human TRPC6 (Homo sapiens, UniProt Q9Y210)
Construct: expressed in transfected cells
Sequence (Q9Y210 1-931): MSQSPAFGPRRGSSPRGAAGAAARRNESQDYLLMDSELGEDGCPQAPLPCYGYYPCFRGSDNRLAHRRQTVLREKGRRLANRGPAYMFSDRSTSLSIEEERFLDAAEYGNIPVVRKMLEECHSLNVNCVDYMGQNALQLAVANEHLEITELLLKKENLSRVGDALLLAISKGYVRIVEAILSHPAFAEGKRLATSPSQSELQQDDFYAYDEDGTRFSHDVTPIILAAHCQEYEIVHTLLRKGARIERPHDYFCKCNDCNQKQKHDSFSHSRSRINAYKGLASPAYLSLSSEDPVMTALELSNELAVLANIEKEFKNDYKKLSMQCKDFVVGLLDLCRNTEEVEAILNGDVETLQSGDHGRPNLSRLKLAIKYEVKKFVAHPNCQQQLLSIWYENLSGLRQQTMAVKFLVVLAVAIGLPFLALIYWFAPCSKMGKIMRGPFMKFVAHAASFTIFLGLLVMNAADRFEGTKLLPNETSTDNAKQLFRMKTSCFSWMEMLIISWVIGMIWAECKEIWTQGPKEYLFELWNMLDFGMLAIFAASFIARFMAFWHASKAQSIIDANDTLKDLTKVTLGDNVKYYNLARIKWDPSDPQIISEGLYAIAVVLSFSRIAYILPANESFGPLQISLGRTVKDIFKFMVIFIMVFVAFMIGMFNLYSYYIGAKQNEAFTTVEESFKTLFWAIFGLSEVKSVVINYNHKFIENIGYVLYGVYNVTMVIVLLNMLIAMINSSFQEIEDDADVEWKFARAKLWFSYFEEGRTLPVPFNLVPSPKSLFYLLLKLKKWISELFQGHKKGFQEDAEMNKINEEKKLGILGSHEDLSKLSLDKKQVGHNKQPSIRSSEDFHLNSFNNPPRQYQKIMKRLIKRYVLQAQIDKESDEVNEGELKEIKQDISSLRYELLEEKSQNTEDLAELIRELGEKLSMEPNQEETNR
Assay: Evaluation of TRPC6 channel inhibitory activity (1), FLIPR Calcium 5 Assay Kit, OAG stimulation (Compound Nos. 1-1293)
Type: cell-based
Conditions: Human TRPC6 stably-expressing cells, OAG 30 μM, FLIPR Calcium 5 Assay Kit; read-out: Inhibitory activity (pIC50 class) (converted)
metric: IC50

Guide cases for IC50, answers given:
[
  {
    "molecule": "Cn1nc(N2CCCC2)cc1Oc1cc(C#N)ccc1-c1ccc(CCN)cn1 [compound 542]",
    "IC50": "< 10 nM"
  },
  {
    "molecule": "Cc1nc(Oc2cc(C#N)ccc2-c2ccc(CCN)nc2)cc(-c2ccccn2)n1 [Compound 166]",
    "IC50": "10 to 1000 nM"
  },
  {
    "molecule": "N#Cc1ccc(-c2ccc(CCN)cc2)c(Cn2cnc(-c3ccccc3)c2)c1 [compound 1111]",
    "IC50": "10 to 1000 nM"
  },
  {
    "molecule": "NCCc1cnc(-c2ccc(Cl)cc2Oc2cnn(CC(F)(F)F)c2)nc1 [compound 1023]",
    "IC50": "10 to 1000 nM"
  },
  {
    "molecule": "Cn1nc(-c2ccccn2)cc1Oc1cc(C#N)ccc1-c1ccc(C(O)CN)cn1 (stereo not shown) [Compound 249]",
    "IC50": "< 10 nM"
  },
  {
    "molecule": "N#Cc1ccc(-c2ccc(CN)cn2)c(C(=O)c2sc(N3CCOCC3)nc2C(F)(F)F)c1 [compound 1080]",
    "IC50": "< 10 nM"
  },
  {
    "molecule": "Cc1nc(Oc2cc(C#N)ccc2-c2ccc(CCN)cc2)cc(-c2ccsc2)n1 [Compound 32]",
    "IC50": "< 10 nM"
  },
  {
    "molecule": "Cc1nc(C(F)(F)F)cn1Cc1cc(C#N)ccc1-c1ncc(CN)cn1 [compound 1174]",
    "IC50": "10 to 1000 nM"
  }
]

// IC50 lookup, molecule = Cn1nc(C2CC2)cc1Oc1cc(C#N)ccc1-c1ncc(CN)cn1 [compound 325] , result: < 10 nM

// IC50 lookup, molecule = Cc1nc(-c2ccccc2)cn1Cc1cc(C#N)ccc1-c1ccc(CCN)cc1 [compound 1120] , result: < 10 nM

// IC50 lookup, molecule = Cn1nc(N2CCCC2)cc1C(=O)c1cc(C#N)ccc1-c1ncc(CCN)cn1 [compound 1071] , result: < 10 nM

// IC50 lookup, molecule = Cc1cc(Oc2cc(C#N)ccc2-n2cc(C(O)CN)cn2)cc(N2CCOCC2)n1 (stereo not shown) [Compound 241] , result: < 10 nM

// IC50 lookup, molecule = Cc1nc(Oc2cc(C#N)ccc2-c2ncc(CN)cn2)cc(N2CC(F)C2)n1 [compound 793] , result: > 1000 nM

// IC50 lookup, molecule = Cn1nc(-c2ccccc2)cc1Oc1cc(C#N)ccc1-c1ncc(C(O)CN)s1 (stereo not shown) [Compound 225] , result: < 10 nM

// IC50 lookup, molecule = CCN(CC)c1cc(Oc2cc(C#N)ccc2-c2ncc(CCN)cn2)n(C)n1 [compound 656] , result: < 10 nM

// IC50 lookup, molecule = Cc1nc(Oc2cc(C#N)ccc2-c2ncc(CCN)cn2)cc(-c2ccccn2)n1 [compound 599] , result: < 10 nM

// IC50 lookup, molecule = Cc1nc(Oc2cc(C#N)ccc2-n2cc(C(O)CN(C)C)cn2)cc(-c2ccccc2)n1 (stereo not shown) [Compound 104] , result: > 1000 nM

// IC50 lookup, molecule = Cc1nc(Oc2cc(C#N)ccc2-c2ccc(C(O)CN)cc2C)cc(N2CCOCC2)n1 (stereo not shown) [Compound 157] , result: < 10 nM
